The entries that follow carry Ki values tested on UniProt:Q16790, drawn from several published reports.
MEASURED_PARAMETER: Ki (nM)

* CN1CCN(C(=S)NC(=O)c2cc3ccccc3oc2=O)CC1 | 128
* NS(=O)(=O)c1ccc(NC(=O)c2ccc3[nH]ccc3c2)cc1 | 165
* NS(=O)(=O)c1ccc(CCN(Cc2ccccc2)C(=O)CCN(Cc2ccccc2)Cc2ccccc2)cc1 | 106

[A] COc1cc(C(=O)OCCCCCCN(C)CCCOC(=O)COc2ccc3ccc(=O)oc3c2)cc(OC)c1OC
[B] CC(C)C(=O)Nc1ccc(C(=O)NC(=S)Nc2ccc(S(N)(=O)=O)cc2)cc1
[C] CCOC(=O)c1ccc(NC(=S)NC(=O)c2ccc(NC(=O)C(C)C)cc2)cc1
[D] COc1ccc(NS(=O)(=O)c2ccc(Nc3ncc4c(n3)CCCC4=O)cc2)cc1
Prompt: Rank the 4 compounds: largest Ki first, smallest last. Response format: the labels, sorted as the prompt asks.
Response: D, B, A, C

---

The entries that follow carry pKi values tested on Carbonic anhydrase 9 (Homo sapiens), drawn from several published reports.
pKi: −log10 of the molar value.
MEASURED_PARAMETER: pKi

• CN(CCCCCOC(=O)COc1ccc2ccc(=O)oc2c1)CCCOC(=O)c1c2ccccc2cc2ccccc12 = 6.82

[P] C[C@@H](NC(=O)OC(C)(C)C)C(=O)Nc1ccc2c(c1)NC(=O)CC2 (stereo in doubt)
[Q] CC(=O)Nc1ccc(C(=O)NC(=S)Nc2ccc(C(=O)O)cc2)cc1
Prompt: Please tell me which of the two, P or Q , has the higher reported pKi value. Give the label of your selection.
Response: Q

---

The entries that follow carry Ki values tested on Carbonic anhydrase 9 (Homo sapiens), drawn from several published reports.
MEASURED_PARAMETER: Ki (nM)

* NS(=O)(=O)c1ccc(CCNC(=O)c2ccc3[nH]ccc3c2)cc1 | 240
* O=C(CN1C(=O)CSC1=O)c1cc2ccccc2oc1=O | 120

[P] CC(=O)Nc1cc(S(N)(=O)=O)ccc1OCc1cn(CCCS(=O)(=O)[O-])nn1.[Na+]
[Q] NS(=O)(=O)c1ccc(NC(=O)CCc2c[nH]c3ccccc23)cc1
Prompt: Looking only at measured Ki, which entry is lower, P or Q ? Give the label of your selection.
Response: Q
(Q: 166 nM, P: 242 nM)

[I] CCCn1c2ccccc2c2nnc(SCc3cn(-c4ccc(S(N)(=O)=O)cc4)nn3)nc21
[II] N#CCCN(CCc1ccccc1)CC(=O)N(CCc1ccc(S(N)(=O)=O)cc1)Cc1ccc2ccccc2c1
[III] C/C(=C\COc1c2occc2cc2ccc(=O)oc12)CO
[IV] CCCCCCCC/C=C\CCCCCCCCNC(=O)CCN(CCc1ccccc1)CC(=O)N(CCc1ccc(S(N)(=O)=O)cc1)Cc1ccco1
[V] COCc1cc(=O)oc2cc(NC(=O)[C@H](C)NC(C)=O)ccc12
Prompt: Rank the 5 compounds: largest Ki first, smallest last. Response format: the labels, sorted as the prompt asks.
Response: III, I, II, IV, V
(III: 2340 nM, I: 219 nM, II: 151 nM, IV: 61.1 nM, V: 29.4 nM)

[a] Cc1ccc(C(=O)Nc2ccc(C(=O)NC(=S)Nc3ccc(C(=O)O)cc3)cc2)cc1
[b] O=C(NC(=S)NC1CCCCC1)c1cc2ccccc2oc1=O
[c] CC(C)n1c2ccc(Cl)cc2c2nnc(SCc3cn(-c4ccc(S(N)(=O)=O)cc4)nn3)nc21
Prompt: Ascending by Ki, please. Response format: the labels, sorted as the prompt asks.
Response: b, a, c
(b: 115 nM, a: 176 nM, c: 321 nM)

[A] NS(=O)(=O)c1ccc2c(c1)CCN2C(=O)c1cccs1
[B] NS(=O)(=O)c1ccc2c(c1)CCN2C(=O)c1c(F)c(F)c(F)c(F)c1F
Prompt: Looking only at measured Ki, which entry is lower, A or B ? Give the label of your selection.
Response: A
(A: 177 nM, B: 1300 nM)

[A] NC1=NC2(CCCC2)N(c2ccc(S(N)(=O)=O)cc2)C(N)=N1
[B] C=CCn1c2ccccc2c2nnc(SCc3cn(-c4ccc(S(N)(=O)=O)cc4)nn3)nc21
[C] NS(=O)(=O)c1ccccc1NC(=O)c1ccc2[nH]ccc2c1
[D] N#CCCN(CCc1ccccc1)CC(=O)N(CCc1ccc(S(N)(=O)=O)cc1)Cc1ccc([N+](=O)[O-])cc1
Prompt: Ascending by Ki, please. Response format: the labels, sorted as the prompt asks.
Response: B, D, C, A
(B: 41.1 nM, D: 202 nM, C: 635 nM, A: 1060 nM)

---

The entries that follow carry pKi values tested on Carbonic anhydrase 9 (Homo sapiens, UniProt Q16790), drawn from several published reports.
pKi: −log10 of the molar value.
MEASURED_PARAMETER: pKi

Before answering, review these 4 worked examples.
* COc1cc(/C=C/C(=O)OCCCCCCCN(C)CCCCCCCOC(=O)c2ccc(S(N)(=O)=O)cc2)cc(OC)c1OC | 6.76
* CCc1ccc(C2=C/C(=C\c3ccc(F)cc3)C(=O)N2CCc2ccc(S(N)(=O)=O)cc2)cc1 | 7.15
* NC1=NC2(CCCCC2)NC(Nc2ccc(S(N)(=O)=O)cc2)=N1 | 5.64
* NS(=O)(=O)c1ccc2c(c1)CCN2C(=O)c1cccc(Cl)c1 | 6.85

[I] CC(C)C(=O)Nc1cccc(C(=O)NC(=S)Nc2ccc(S(N)(=O)=O)cc2)c1
[II] NS(=O)(=O)c1ccc(-n2nnc(S(=O)(=O)c3ccccc3)c2-c2cccc(Br)c2)cc1
[III] O=C(COc1ccc2ccc(=O)oc2c1)NCc1ccc(F)cc1
Prompt: Rank the 3 compounds: largest pKi first, smallest last. Response format: the labels, sorted as the prompt asks.
Response: II, I, III
(II: 7.57, I: 6.83, III: 5.60)

[a] CC(C)C(=O)Nc1cccc(C(=O)NC(=S)Nc2ccc(C(=O)O)cc2)c1
[b] O=C(O)c1ccc(NC(=S)NC(=O)c2ccc(Cl)c(Cl)c2)cc1
[c] NS(=O)(=O)c1ccc(-n2nnc(S(=O)(=O)c3ccccc3)c2-c2cccc([N+](=O)[O-])c2)cc1
Prompt: Ascending by pKi, please. Response format: the labels, sorted as the prompt asks.
Response: b, a, c
(b: 5.76, a: 6.68, c: 7.58)

[1] O=C(NC(=S)N1CCCCC1)c1cc2ccccc2oc1=O
[2] O=C1CC(c2ccccc2)Cc2nc(Nc3ccc(S(=O)(=O)Nc4ccc([N+](=O)[O-])cc4)cc3)ncc21 (stereo not shown)
Prompt: Looking only at measured pKi, which entry is lower, 1 or 2 ? Give the label of your selection.
Response: 2
(2: 5.88, 1: 6.70)

[P] O=C(NC(=S)NCCN1CCOCC1)c1cc2ccccc2oc1=O
[Q] NCCCN(CCc1ccccc1)CC(=O)N(CCc1ccc(S(N)(=O)=O)cc1)Cc1ccc2ccccc2c1
Prompt: Please tell me which of the two, P or Q , has the higher reported pKi value. Give the label of your selection.
Response: Q

[I] O=C(COc1ccc2oc(=O)ccc2c1)Nc1ccc(F)cc1
[II] N#CCc1nc(N)nc(Nc2ccc(S(N)(=O)=O)cc2)n1
[III] CC(C)n1c2ccccc2c2nnc(SCc3cn(-c4ccc(S(N)(=O)=O)cc4)nn3)nc21
[IV] C=CCc1ccc(OCCCCCCCCCCOc2ccc3ccc(=O)oc3c2)c(OC)c1
Prompt: Rank the 4 compounds: largest pKi first, smallest last. Response format: the labels, sorted as the prompt asks.
Response: III, I, IV, II

[I] O=C(NC(=S)NCCC1=CCCCC1)c1cc2ccccc2oc1=O
[II] CCOC(=O)c1ccc(NC(=S)NC(=O)c2cccc(NC(C)=O)c2)cc1
Prompt: Please tell me which of the two, I or II , has the higher reported pKi value. Give the label of your selection.
Response: I

---

The entries that follow carry Ki values tested on Carbonic anhydrase 9 (Homo sapiens), drawn from several published reports.
MEASURED_PARAMETER: Ki (nM)

Before answering, review these 2 worked examples.
• CN(CCCCCOC(=O)c1ccc(S(N)(=O)=O)cc1)CCCOC(=O)c1c2ccccc2cc2ccccc12 = 241
• CC(=O)Nc1cc(S(N)(=O)=O)ccc1OCc1cn(CCCCS(=O)(=O)O)nn1 = 82.5

[I] CCn1c2ccccc2c2nnc(SCc3cn(-c4ccc(S(N)(=O)=O)cc4)nn3)nc21
[II] NS(=O)(=O)c1ccc(NC(=O)c2cc3sccc3n2Cc2ccc(Cl)cc2)cc1
Prompt: Looking only at measured Ki, which entry is lower, I or II ? Give the label of your selection.
Response: II
(II: 81.4 nM, I: 172 nM)

---

The entries that follow carry pKi values tested on Carbonic anhydrase 9 (Homo sapiens, UniProt Q16790), drawn from several published reports.
pKi: −log10 of the molar value.
MEASURED_PARAMETER: pKi

• CCc1ccc(C2=C/C(=C\c3ccc(Cl)cc3)C(=O)N2CCc2ccc(S(N)(=O)=O)cc2)cc1 = 6.99
• NCCCN(CCc1ccccc1)CC(=O)N(CCc1ccc(S(N)(=O)=O)cc1)Cc1ccco1 = 7.95

[a] NS(=O)(=O)c1cccc(NC(=O)CCc2c[nH]c3ccccc23)c1
[b] NS(=O)(=O)c1ccc(CCNC(=O)Nc2ccc(C(=O)N3CC(=O)N4CCc5ccccc5C4C3)cn2)cc1 (centres unmarked)
Prompt: Please tell me which of the two, a or b , has the higher reported pKi value. Give the label of your selection.
Response: b
